Tested on: TK-10
ASSAY_PROCEDURE: NCI one-dose screening, renal cancer TK-10
Type: cell-based, human
CONDITION_NOTES: TK-10, 10 μM
Form field: Growth Percent (10 μM) (one value per entry).
Response body: numeric value in %, unit text excluded.

Here are 3 compounds together with their reported answers.
# COMPOUND, QUANTITY_NAME, UNIT_TAG, NUMERIC_VALUE
measured = [
    ("Cc1ccc(Nc2cc3c(c4nsnc24)C(=O)c2ccccc2C3=O)cc1 [C64]", "Growth Percent (10 μM)", "%", 95.15),
    ("CC(C)Sc1cc2c(c3nsnc13)C(=O)c1ccccc1C2=O [C18]", "Growth Percent (10 μM)", "%", 30.33),
    ("CN(C)CCNc1cc2c(c3nsnc13)C(=O)c1ccccc1C2=O [C8]", "Growth Percent (10 μM)", "%", "−35.59"),
]

# evaluate next
The observed Growth Percent (10 μM) for O=C1c2ccccc2C(=O)c2c1cc(N1CCCC1)c1nsnc21 [C7] when tested with TK-10 stands at 141.01

----------
Test system: MDA-MB-468
ASSAY_PROCEDURE: NCI one-dose screening, breast cancer MDA-MB-468
Type: cell-based, human
CONDITION_NOTES: 10 μM
QUANTITY_NAME: Growth Percent MDA-MB-468 (%)
State just the number; it will be interpreted in %.

Below: 4 molecules and their reported Growth Percent MDA-MB-468.
# MOLECULE, STUDY_SYSTEM, UNIT_TAG, Growth Percent MDA-MB-468
measured = [
    ("O=C1c2ccccc2C(=O)c2c1cc(Nc1ccc(Cl)cc1)c1nsnc21 [C60]", "MDA-MB-468", "%", 32.52),
    ("O=C1c2ccccc2C(=O)c2c1cc(Sc1ccc(F)cc1F)c1nsnc21 [C39]", "MDA-MB-468", "%", "−86.96"),
    ("O=C1c2ccccc2C(=O)c2c1cc(Sc1ccccc1)c1nsnc21 [C19]", "MDA-MB-468", "%", 87.29),
    ("O=C1c2ccccc2C(=O)c2c1cc(Sc1cccc(Cl)c1)c1nsnc21 [C37]", "MDA-MB-468", "%", "−79.19"),
]

Noted Growth Percent MDA-MB-468 for O=C1c2ccccc2C(=O)c2c1cc(Cl)c1nsnc21 [C2] , tested on MDA-MB-468: −88.31

Known value: MDA-MB-468 Growth Percent MDA-MB-468 of the molecule O=C1c2ccccc2C(=O)c2c1cc(N1CCOCC1)c1nsnc21 [C10] equals 45.59

Field Growth Percent MDA-MB-468 (MDA-MB-468), entry Cc1ccc(Sc2cc3c(c4nsnc24)C(=O)c2ccccc2C3=O)c(C)c1 [C25] : 100.45

----------
System: OVCAR-5
ASSAY_PROCEDURE: NCI one-dose screening, ovarian cancer OVCAR-5
Assay type: cell-based, human
CONDITION_NOTES: 10 μM
QUANTITY_NAME: Growth Percent OVCAR-5 (%)
Just the number please, in %, no unit attached.

Known results for compounds:
# STRUCTURE_STRING, STUDY_SYSTEM, QUANTITY_NAME, NUMERIC_VALUE
records = [
    ("O=C1c2ccccc2C(=O)c2c1cc(Sc1cccc(Cl)c1)c1nsnc21", "OVCAR-5", "Growth Percent OVCAR-5", 108.55),
    ("O=C1c2ccccc2C(=O)c2c1ccc1nsnc21", "OVCAR-5", "Growth Percent OVCAR-5", "−20.07"),
    ("O=C1c2ccccc2C(=O)c2c1cc(Sc1ccccn1)c1nsnc21", "OVCAR-5", "Growth Percent OVCAR-5", 118.16),
    ("Cc1cccc(C)c1Sc1cc2c(c3nsnc13)C(=O)c1ccccc1C2=O", "OVCAR-5", "Growth Percent OVCAR-5", 113.96),
]

# ---- query compound ----
Query CSc1ccc(Sc2cc3c(c4nsnc24)C(=O)c2ccccc2C3=O)cc1 yields Growth Percent OVCAR-5 of 108.31
